Measurement record for Mycobacterium smegmacis DSM 43061; quantity recorded: MIC.
Answers are plain numbers, in µg/mL.

See these solved cases before continuing.
CC(=O)NC[C@H]1CN(c2ccc3c(c2)sc(=O)n3C)C(=O)O1 [Example 18]	0.25
Cn1c(=O)sc2cc(N3C[C@H](CNC(=O)C4CC4)OC3=O)ccc21 [Example 54]	4
COC(=O)NC[C@H]1CN(c2ccc3c(c2)sc(=O)n3C)C(=O)O1 [Example 70]	0.25

Next:
# MIC of CCC(=O)NC[C@H]1CN(c2ccc3c(c2)sc(=O)n3C)C(=O)O1 [Example 56] = 1

---

- Test system: Staph. 25701
- TEST: MIC by series dilution method
- Format: cell-based
- ASSAY SETUP: Staph. 25701; 37° C., about 20 hours; read-out: MIC
Would you kindly list MIC for each of these molecules?

Cn1c(=O)sc2cc(N3C[C@H](CNC(=O)C4CCC4)OC3=O)ccc21	1 µg/mL
CC(=O)NC[C@H]1CN(c2ccc3c(c2)oc(=S)n3C)C(=O)O1	0.25 µg/mL
CC(=O)NC[C@H]1CN(c2ccc3[nH]c(=O)oc3c2)C(=O)O1	16 µg/mL

Batch: MIC for all items listed.
1. CCCCCn1c(=O)oc2cc(N3C[C@H](CNC(C)=O)OC3=O)ccc21
2. COC(=O)NC[C@H]1CN(c2ccc3c(c2)sc(=O)n3C)C(=O)O1
3. CC(=O)NC[C@H]1CN(c2ccc3c(c2)oc(=NC(=O)C2CC2)n3C)C(=O)O1
4. CC(=O)NC[C@H]1CN(c2ccc3c(c2)oc(=O)n3Cc2ccccc2)C(=O)O1
5. CCn1c(=S)sc2cc(N3C[C@H](CNC(C)=O)OC3=O)ccc21

["1 µg/mL", "0.5 µg/mL", "0.5 µg/mL", "4 µg/mL", "0.5 µg/mL"]

---

Assignment: determine reported MIC for the given molecules.
- System: Mycobacterium smegmacis DSM 43277
- TEST: MIC in microtiter plates (Mycobacterium)
- Type: cell-based
- ASSAY SETUP: DSM43277, 37° C., 3 to 5 days
Give bare numbers, in µg/mL.

Cn1c(=O)sc2cc(N3C[C@H](CNC(=O)C4CC4)OC3=O)ccc21	2
CCC(=O)NC[C@H]1CN(c2ccc3c(c2)sc(=O)n3C)C(=O)O1	0.25
CC(=O)NC[C@H]1CN(c2ccc3c(c2)sc(=O)n3C)C(=O)O1	0.25

Here's the next entry for you.
Known value: Mycobacterium smegmacis DSM 43277 MIC of the molecule `COC(=O)NC[C@H]1CN(c2ccc3c(c2)sc(=O)n3C)C(=O)O1` equals 0.5

---

Would you kindly list MIC for each of these molecules?
- Test system: Staph. 25701
- TEST: MIC by series dilution method
- Format: cell-based
- ASSAY SETUP: Staph. 25701; 37° C., about 20 hours; read-out: MIC
- Procedure: The minimum inhibitory concentration (MIC) were determined by a series dilution method on Iso-Sensitest agar (Oxoid). For each test substance, a series of agar plates each comprising concentrations of the active compound decreasing by double dilution in each case was prepared. The agar plates were inoculated with a multipoint inoculator (Denley). […] The inoculated agar plates were incubated at 37° C. and the germ growth was read off after about 20 hours. […]
Give bare numbers, in µg/mL.

Worked cases, answers included:
CCOC(=O)Cn1c(=O)oc2cc(N3C[C@H](CNC(C)=O)OC3=O)ccc21 [Example 39]	4
CC(=O)NC[C@H]1CN(c2ccc3c(c2)oc(=O)n3C)C(=O)O1 [Example 37]	1
CC(=O)NC[C@H]1CN(c2ccc3c(c2)oc(=O)n3C(C)C)C(=O)O1 [Example 47]	0.5

I need MIC for every entry listed below, if you could help.
1. CCn1c(=O)sc2cc(N3C[C@H](CNC(C)=O)OC3=O)ccc21 [Example 22]
2. CCC(=O)NC[C@H]1CN(c2ccc3c(c2)sc(=O)n3C)C(=O)O1 [Example 56]
3. CC(=O)NC[C@H]1CN(c2ccc3c(c2)sc(=O)n3C)C(=O)O1 [Example 18]

1
0.5
0.25
